Values compiled from the MegaScale stability set (Tsuboyama et al. 2023).

Please respond with reported folding stability dG for every item in the list.
B1: 5KPH (parent)
chain: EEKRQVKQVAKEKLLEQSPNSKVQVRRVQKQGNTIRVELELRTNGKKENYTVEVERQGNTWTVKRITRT

variants of: B1; test: folding stability dG (cDNA display proteolysis); higher = more stable; conditions: PBS, room temperature
Numbers only, in kcal/mol.

>  <variant_descriptor>
A10T

>  <reported_property>
folding stability dG

>  <recorded_measurement>
2.76

$$$$
>  <variant_descriptor>
Q29H

>  <reported_property>
folding stability dG

>  <recorded_measurement>
4.18

$$$$

Value sought for every listed variant: folding stability dG.
1. T43A
2. R26K
3. N44Y
4. E53P
5. T67V
6. G58Y
7. T69N
8. R4G

1: 3.72; 2: 4; 3: 3.78; 4: -0.812; 5: 3.96; 6: 3.15; 7: 3.87; 8: 3.38
